src = patent US20100227824A1

# studyTarget: T1, MCP-2 (CCL8) (UniProt P80075 24-99)
# T1 construct: Bought chemokine
# T1 sequence (looked up): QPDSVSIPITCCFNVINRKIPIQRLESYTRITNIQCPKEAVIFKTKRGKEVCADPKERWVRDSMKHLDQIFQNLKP
# testSummary: micro-array, phage-presented peptide on printed CK
Ends that are not written are not given here.
measurementName: Relative Fluorescence Units (RFU)

Below are worked cases with known answers.
binder | endpointResult
WVFGNAACK [Phage-Presented Peptide 8.7 (Ph-p8.7)] | > 15000 RFU
DYDYG [Phage-Presented Peptide 31 (Ph-p31)] | > 15000 RFU
DYDYGAPC [Phage-Presented Peptide 30 (Ph-p30)] | > 15000 RFU
TKCQKE [Phage-Presented Peptide 20 (Ph-p20)] | > 15000 RFU

Reported Relative Fluorescence Units (RFU) ( DYDY [Phage-Presented Peptide 32 (Ph-p32)] ) = > 10000 RFU

Reported Relative Fluorescence Units (RFU) ( WVFGAAMCK [Phage-Presented Peptide 8.8 (Ph-p8.8)] ) = > 15000 RFU

Reported Relative Fluorescence Units (RFU) ( WVFGVHFCK [Phage-Presented Peptide 8.77 (Ph-p8.77)] ) = > 15000 RFU

Reported Relative Fluorescence Units (RFU) ( HYTCSSHFP (also: displayed on M13 phage, fusion not given here) [Phage-Presented Peptide 17 (Ph-p17)] ) = > 600 RFU
